- target_under_test: Carbonic anhydrase 2 (Homo sapiens, UniProt P00918)

# molecule, units_label, bound_type, IC50
measured = [
    ("CN(C)S(=O)(=O)NCC1COc2ccccc2O1 (racemic)", "µM", ">", 1000),
    ("NS(=O)(=O)NC[C@H]1COc2c(Cl)cccc2O1", "µM", "=", 220),
    ("COc1cccc2c1O[C@@H](CNS(N)(=O)=O)CO2", "µM", "=", 300),
]

====

- protocol_details: Half life in beagle dog at 10 mg/kg, po
- Assay type: ADME, organism-based, Canis lupus familiaris
- Design: dose 10 mg/kg, route oral
- condition_set: in vivo

# compound, half-life (h)
rows = [
    ("NS(=O)(=O)NC[C@H]1COc2cc(Cl)ccc2O1 [JNJ-26489112]", 20),
]
